assay: Oral bioavailability in rat at 5 mg/kg; assay type: ADME, organism-based; conditions: in vivo
measurement.kind: bioavailability (%)

# cpd.smiles, observed
measured = [
    ("CC(C)c1onc(-c2c(Cl)cccc2Cl)c1COc1ccc2sc(-c3cccc(C(=O)O)c3)cc2c1", 8.5),
]

(a) CC(C)c1onc(-c2c(Cl)cccc2Cl)c1COc1ccc2c(c1)ncn2Cc1cccc(C(=O)O)c1
(b) CC(C)c1onc(-c2c(Cl)cccc2Cl)c1COc1ccc2c(ccn2Cc2cccc(C(=O)O)c2)c1
Req: Given the two records a and b , choose the one whose bioavailability value is lower. State your choice using its label.
Resp: b
(b: 12%, a: 26%)

====

assay: Volume of distribution at steady state in rat at 1 mg/kg, iv; assay type: ADME, organism-based; design: dose 1 mg/kg, route intravenous; conditions: in vivo, read-out: Vdss
measurement.kind: Vd (L/kg)

# cpd.smiles, Vd, L/kg
data = [
    ("CC(C)c1onc(-c2c(Cl)cccc2Cl)c1COc1ccc2c(ccn2Cc2cccc(C(=O)O)c2)c1", 0.07),
]

(P) CC(C)c1onc(-c2c(Cl)cccc2Cl)c1COc1ccc2c(c1)ncn2Cc1cccc(C(=O)O)c1
(Q) CC(C)c1onc(-c2c(Cl)cccc2Cl)c1COc1ccc2sc(-c3cccc(C(=O)O)c3)cc2c1
Req: Lab note: check whether P or Q has the lower measured Vd. Selection: enter the item's label.
Resp: P
(P: 0.085 L/kg, Q: 0.72 L/kg)

====

biological target: Bile acid receptor (Homo sapiens, UniProt Q96RI1); test: Increase in human FXR-mediated transient transcription of luciferase reporter gene transfected in african green monkey CV1 cells; type: cell-based, CV-1
Sequence (Q96RI1 whole entry): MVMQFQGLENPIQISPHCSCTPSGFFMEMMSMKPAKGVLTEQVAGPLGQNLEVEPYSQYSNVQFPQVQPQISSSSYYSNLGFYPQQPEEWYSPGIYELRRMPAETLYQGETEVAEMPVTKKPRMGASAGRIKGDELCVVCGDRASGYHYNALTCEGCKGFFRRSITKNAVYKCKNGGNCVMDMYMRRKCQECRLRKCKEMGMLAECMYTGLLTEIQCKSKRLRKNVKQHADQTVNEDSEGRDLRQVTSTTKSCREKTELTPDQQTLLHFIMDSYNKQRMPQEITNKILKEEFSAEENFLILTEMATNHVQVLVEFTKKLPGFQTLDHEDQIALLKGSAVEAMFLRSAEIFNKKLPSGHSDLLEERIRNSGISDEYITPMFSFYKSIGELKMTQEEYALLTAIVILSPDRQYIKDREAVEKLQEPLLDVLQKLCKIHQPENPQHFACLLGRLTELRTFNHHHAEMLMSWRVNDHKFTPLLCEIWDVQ
pEC50: −log10 of the molar value.
measurement.kind: pEC50

# cpd.smiles, pEC50
rows = [
    ("CC(C)c1onc(-c2c(Cl)cccc2Cl)c1CNc1nc2ccc(-c3cccc(C(=O)O)c3)cc2s1", 6.42),
    ("CC(C)c1onc(-c2c(Cl)cccc2Cl)c1COc1ccc2[nH]c(-c3cccc(C(=O)O)c3)cc2c1", 6.20),
    ("CC(C)c1onc(-c2c(Cl)cccc2Cl)c1COc1ccc2c(Cc3cccc(C(=O)O)c3)c[nH]c2c1", 6.03),
]

(1) CC(C)c1onc(-c2c(Cl)cccc2Cl)c1COc1ccc2cc(-c3ccc(C(=O)O)cc3)ccc2c1
(2) CC(C)c1onc(-c2c(Cl)cccc2Cl)c1COc1ccc2nc(-c3cccc(C(=O)O)c3)sc2c1
(3) CC(C)c1onc(-c2c(Cl)cccc2Cl)c1COc1ccc2sc(-c3cccc(C(=O)O)c3)cc2c1
Req: Place the items in sequence of falling pEC50. List labels; respect the requested ordering.
Resp: 3, 2, 1

====

target: Bile acid receptor (Homo sapiens, UniProt Q96RI1); test: Increase in human FXR-mediated transient transcription of luciferase reporter gene transfected in african green monkey CV1 cells; type: cell-based, CV-1
measurement.kind: EC50 (µM)

# cpd.smiles, EC50, µM
records = [
    ("CC(C)c1onc(-c2c(Cl)cccc2Cl)c1COc1ccc2cc(-c3cccc(C(=O)O)c3)sc2c1", 0.063),
    ("CC(C)c1onc(-c2c(Cl)cccc2Cl)c1COc1ccc2sc(-c3ccc(C(=O)O)cc3)cc2c1", 0.16),
]

(1) CC(C)c1onc(-c2c(Cl)cccc2Cl)c1COc1ccc2c(Nc3cccc(C(=O)O)c3)cccc2c1
(2) CC(C)c1onc(-c2c(Cl)cccc2Cl)c1CCc1nc2cc(-c3cccc(C(=O)O)c3)ccc2o1
(3) CC(C)c1onc(-c2c(Cl)cccc2Cl)c1COc1ccc2c(ccn2Cc2ccc(C(=O)O)cc2)c1
Req: Arrange these 3 molecules in increasing order of EC50. // format: requested-order list of labels
Resp: 1, 3, 2
(1: 0.081 µM, 3: 0.33 µM, 2: 0.71 µM)
